assay: in vivo; conditions: mouse, po
readout-kind: LD50 (mg/kg)
Respond numerically; units are mg/kg and should not be typed.

Example results:
Cn1c(-c2ccccc2)nc2c3ccccc3ccc21 [Example 1]: 1000
CNc1ccc(-c2nc3c4ccccc4ccc3n2C)cc1 [Example 7]: 500

(Q) Given the compound CN(C)c1ccc(-c2nc3c4ccccc4ccc3n2C)cc1 [Example 4] , write its reported LD50.
(A) 500

(Q) For the compound Cc1cc(-c2nc3c4ccccc4ccc3n2C)ccc1N(C)C [Example 5] , report LD50.
(A) 500

====

assay: in vivo; conditions: mouse, po
Item-by-item account of LD50

Some entries whose results are on file:
CCOc1ccc(-c2nc3c4ccccc4ccc3n2C)cc1 [Example 2]: > 1000 mg/kg
COc1ccc(-c2nc3c4ccccc4ccc3n2C)cc1 [Example 3]: ~1000 mg/kg

Moving on to another compound below.
(Q) Give LD50 for CCn1c(-c2ccc(OC)cc2)nc2c3ccccc3ccc21 [Example 15]
(A) > 1000 mg/kg
